The measured values listed here are drawn from patent US20260158026A1.

Tested on: GBM cells isolated from an additional five patients
Test: IC50 measurement, cell viability assay
Assay type: cell-based
Settings: Homo sapiens, FIG. 2
pIC50: −log10 of the molar value.
observation_type: pIC50

{"smiles_representation": "Fc1ccc(C(OCCN2CCN(CCCc3ccccc3)CC2)c2ccc(F)cc2)cc1", "test_value": 5.33}
